Each entry below carries its recorded protein stability index.
# Test system: Saccharomyces cerevisiae
# MEASUREMENT PROTOCOL: protein stability index of tFT-peptide fusion in deletion strain of DAS1 (PSI (0-1 scale)); higher = more stable (slower turnover)
Answer with a number only.

These solved cases illustrate the format of a correct answer.
> print(dat)
   construct.sequence  result
1        ESLAASFWRVVG   0.689
2        ARWRCGLWRGAS   0.695
3        PSTAASFWRVVG   0.701
4        VRGAVGDWRLVG   0.658
5       ARWRVGLWRGASV   0.676

Data request: Report measured protein stability index; entry is PDKRNHLIKYLN
Data returned: 0.638

Data request: Report measured protein stability index; entry is PSLAASFWRVVGW
Data returned: 0.699

Data request: Report measured protein stability index; entry is KKNKKGQKQKIN
Data returned: 0.598

Data request: Report measured protein stability index; entry is KKHKKGQKQKINA
Data returned: 0.655

Data request: Report measured protein stability index; entry is VRGAVGGWRLVGC
Data returned: 0.694

---

# Tested on: Saccharomyces cerevisiae
# MEASUREMENT PROTOCOL: protein stability index of tFT-peptide fusion (C-terminal peptide) (PSI (0-1 scale)); higher = more stable (slower turnover)
# TEST SETTINGS: genetic background: wild type; temperature: 30 C
Class (by protein stability index) -- bucket 1: < 0.6; bucket 2: ≥ 0.6 and < 0.7; bucket 3: ≥ 0.7

Worked examples follow.
> print(dat)
    construct.sequence          target.or.system  class.name
 1        FGLRVHPIVFIF  Saccharomyces cerevisiae    bucket 1
 2        LRFSFFSSLFVL  Saccharomyces cerevisiae    bucket 1
 3        PSTPPGPPPASH  Saccharomyces cerevisiae    bucket 3
 4        CCSWPSRLLLEG  Saccharomyces cerevisiae    bucket 3
 5        SCGCCGVLFQGV  Saccharomyces cerevisiae    bucket 3
 6        DVRTLGTRVMGW  Saccharomyces cerevisiae    bucket 2
 7        LQVPTLRLFVFF  Saccharomyces cerevisiae    bucket 1
 8        HRWCLADYVEVG  Saccharomyces cerevisiae    bucket 3
 9        LGSCPPPPAPPP  Saccharomyces cerevisiae    bucket 2
10        RPLSSPPTRSRA  Saccharomyces cerevisiae    bucket 3

Data request: Assign a bin to SCVWVLPLGFLR
Data returned: bucket 1

Data request: Assign a bin to PPPTPSDPQNSS
Data returned: bucket 2

Data request: Assign a bin to QNSDDFLITDTY
Data returned: bucket 2

Data request: Assign a bin to CYGYTESKNRLD
Data returned: bucket 2

Data request: Assign a bin to YPCRLFVRSLLA
Data returned: bucket 1

Data request: Assign a bin to QTGQVSRVSPHD
Data returned: bucket 2

Data request: Assign a bin to GGCIGAKSVGGG
Data returned: bucket 2

Data request: Assign a bin to PPLPDSPPPVPP
Data returned: bucket 2

Data request: Assign a bin to ASIEVGNVIKQM
Data returned: bucket 1

Data request: Assign a bin to PPPRPTPAPPRV
Data returned: bucket 2

Data request: Assign a bin to NNKRNGRIKRKI
Data returned: bucket 3

Data request: Assign a bin to RWCEWYDMNTII
Data returned: bucket 2

Data request: Assign a bin to LFLLSVNLLLGY
Data returned: bucket 1

Data request: Assign a bin to APPPPVAEAARG
Data returned: bucket 2

Data request: Assign a bin to PPRPPSPPPPSP
Data returned: bucket 2

Data request: Assign a bin to SWCQFAVGGIIH
Data returned: bucket 2

Data request: Assign a bin to ARCLETKPVMNA
Data returned: bucket 2

Data request: Assign a bin to SRKRIVALMLSG
Data returned: bucket 1

Data request: Assign a bin to HIEGRKHKDVAM
Data returned: bucket 2

Data request: Assign a bin to FLTSPSVWRYLF
Data returned: bucket 1

Data request: Assign a bin to LFFGFFLIYFLG
Data returned: bucket 1

Data request: Assign a bin to ADPWSFKIVKEL
Data returned: bucket 1

Data request: Assign a bin to LISGGLSWGDCW
Data returned: bucket 3
